These entries and their values trace back to paper PMC10810970.

# SYSTEM: MAPK8-HiBiT (Homo sapiens)
# Construct: inserting reporters onto target endogenous genes while preserving native biology; endogenous in cells
# Sequence (P45983 whole entry): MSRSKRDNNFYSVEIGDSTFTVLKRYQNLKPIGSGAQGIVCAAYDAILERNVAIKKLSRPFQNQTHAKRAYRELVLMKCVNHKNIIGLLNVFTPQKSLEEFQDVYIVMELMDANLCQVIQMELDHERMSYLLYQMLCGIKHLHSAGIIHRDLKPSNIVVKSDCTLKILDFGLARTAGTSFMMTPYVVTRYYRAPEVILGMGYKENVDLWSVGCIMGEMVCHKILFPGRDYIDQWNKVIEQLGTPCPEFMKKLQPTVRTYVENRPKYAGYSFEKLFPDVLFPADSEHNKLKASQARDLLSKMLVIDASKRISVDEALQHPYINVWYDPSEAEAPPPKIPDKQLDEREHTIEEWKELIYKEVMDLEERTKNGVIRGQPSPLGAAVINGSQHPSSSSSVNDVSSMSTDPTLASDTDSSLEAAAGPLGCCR
# TEST_METHOD_NOTES: Immuno-BRET assay of MAPK8-HiBiT phosphorylation (T183/Y185) in K562 cells
# CONDITION_CONTEXT: EC50, p-SAPK/JNK (T183/Y185), MAPK8-HiBiT K562 cells; 80 min at 37 °C
MEASURE_NAME: pEC50
Lab note: report pEC50 as minus log10 of the concentration in molar units, number only.

# pEC50 lookup, item COc1ccc(C[C@H]2NC[C@H](O)[C@H]2OC(C)=O)cc1
7.27

---

# System: STAT3-HiBiT
# Format: cell-based, human
# CONDITION_CONTEXT: LNCaP STAT3-HiBiT (Pooled); read-out: IC50, p-STAT3 (Y705)
MEASURE_NAME: IC50 (nM)
Form entry: value (nM) — number only.

# IC50 lookup, item N#CC[C@H](C1CCCC1)n1cc(-c2ncnc3[nH]ccc23)cn1
19.3

---

# Test system: HiBiT-histone H3
# TEST_METHOD_NOTES: Immuno-BRET assay of HiBiT-histone H3 acetylation in A-431 cells
# Assay type: cell-based, human
# CONDITION_CONTEXT: A-431 HiBiT-H3F3A cells; overnight at 37 °C; anti-H3K9ac antibody; read-out: EC50, Ac-H3K9
# Description: CRISPR/Cas9-modified cells resuspended in culture media containing FBS were plated in 50 μL volumes in white 96-well tissue culture plates and incubated for 24 h at 37 °C. […] Bioluminescence and fluorescence were then measured using a plate reader. All 96-well assay plates were read using a multimode GloMax® Discover Microplate Reader from Promega. […] IC50 values were determined by using a nonlinear regression fit to a sigmoidal dose response (variable slope). […]
MEASURE_NAME: pEC50
Lab note: report pEC50 as minus log10 of the concentration in molar units, number only.

# pEC50 lookup, item CC(/C=C/C(=O)NO)=C\[C@@H](C)C(=O)c1ccc(N(C)C)cc1 [Trichostatin A, trichostatin A]
6.34
